Entry source: paper PMC11206297

- Measurement target: PARP1 (Homo sapiens, UniProt P09874)
- Sequence (P09874 whole entry): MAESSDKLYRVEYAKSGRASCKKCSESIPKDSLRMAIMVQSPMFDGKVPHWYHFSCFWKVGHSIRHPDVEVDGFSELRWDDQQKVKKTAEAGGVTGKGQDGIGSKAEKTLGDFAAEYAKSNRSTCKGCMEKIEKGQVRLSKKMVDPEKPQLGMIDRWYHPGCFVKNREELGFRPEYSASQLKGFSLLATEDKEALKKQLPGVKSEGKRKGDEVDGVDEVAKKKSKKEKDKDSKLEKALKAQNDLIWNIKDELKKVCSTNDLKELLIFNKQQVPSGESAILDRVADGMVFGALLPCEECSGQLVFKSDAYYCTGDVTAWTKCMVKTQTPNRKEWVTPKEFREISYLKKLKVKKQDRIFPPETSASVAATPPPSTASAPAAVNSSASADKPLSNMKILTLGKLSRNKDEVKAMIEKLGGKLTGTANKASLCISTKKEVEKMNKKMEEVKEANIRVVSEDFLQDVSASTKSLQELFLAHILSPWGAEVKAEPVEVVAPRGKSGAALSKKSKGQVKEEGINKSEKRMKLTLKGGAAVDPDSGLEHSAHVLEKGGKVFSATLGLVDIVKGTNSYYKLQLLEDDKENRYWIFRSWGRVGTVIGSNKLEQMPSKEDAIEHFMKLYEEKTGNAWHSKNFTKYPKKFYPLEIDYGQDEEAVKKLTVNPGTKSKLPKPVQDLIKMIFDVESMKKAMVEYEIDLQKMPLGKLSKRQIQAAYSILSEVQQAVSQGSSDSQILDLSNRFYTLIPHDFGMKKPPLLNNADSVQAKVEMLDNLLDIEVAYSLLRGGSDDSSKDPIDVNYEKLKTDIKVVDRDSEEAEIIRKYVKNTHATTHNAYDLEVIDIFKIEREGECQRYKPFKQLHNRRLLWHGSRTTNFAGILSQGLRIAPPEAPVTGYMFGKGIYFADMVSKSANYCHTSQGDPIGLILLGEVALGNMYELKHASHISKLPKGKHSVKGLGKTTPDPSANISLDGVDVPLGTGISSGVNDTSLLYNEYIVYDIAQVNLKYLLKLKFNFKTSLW
- Run description: PARP1 enzymatic inhibition assay (ELISA, chemiluminescence)
- Type: biochemical
- Measurement parameters: 0.5 μM; duplicate, average; read-out: PARP1 Inhibition Rate
Think of 70% as a floor: if inhibition at 0.5 µM stands on it or above, it is Fulfilled; beneath it, Not fulfilled.

Decide: inhibition at 0.5 µM of NC(=O)c1cccc2[nH]c(C(=O)N3CCN(S(=O)(=O)c4ccc(NC(=S)NCc5cccnc5)cc4)CC3)nc12 >= 70%?
Not fulfilled

Continuing:
Decide: inhibition at 0.5 µM of NC(=O)c1cc(F)ccc1OCc1cccc(C(=O)N2CCN(S(=O)(=O)c3ccc(NC(=O)NCc4cccnc4)cc3)CC2)c1 >= 70%?
Fulfilled

Decide: inhibition at 0.5 µM of NC(=O)c1cc(F)ccc1OCc1ccc(F)c(C(=O)N2CCN(S(=O)(=O)c3ccc(NC(=O)NCc4cccnc4)cc3)CC2)c1 >= 70%?
Fulfilled

Decide: inhibition at 0.5 µM of NC(=O)c1ccccc1OCc1ccc(F)c(C(=O)N2CCN(S(=O)(=O)Cc3ccc(NC(=O)NCc4cccnc4)cc3)CC2)c1 >= 70%?
Fulfilled
